Test system: MDA-MB-468 breast
assayName: NCI-60 one-dose screen, 48 h (100 = growth as untreated, 0 = no growth, -100 = all killed)
conditionNotes: 10 µM unless noted
Experimental: Growth inhibition of the MDA-MB-468 human Breast tumor cell line is measured as a screen for anti-cancer activity. Cells are grown in 96 well plates and exposed to the test compound for 48 hours. Compounds are tested at a single concentration, which is 10^-5 M for most compounds. The reported endpoint is percent growth (GI% or GIPRCNT), where numbers from 0 - 100% represent growth inhibition, and numbers from -100% - 0 represent cell death. […]
Compounds without any hit were thinned out: in the full panel of roughly 83,000, 20% have a hit.
experimentalEndpoint: growth (%)
Give the value in % but do not write % after it.

## Input What value of growth has been reported for the following molecule? `Nc1nc(N)c2cc(CNc3ccc(Cl)c(Cl)c3)ccc2n1`
## Output -75.3

## Input What value of growth has been reported for the following molecule? `COc1ccc(/C=C/c2nnc(/C=C/c3ccc(OC)c(OC)c3)o2)cc1OC`
## Output 19

## Input What value of growth has been reported for the following molecule? `CC(C)(C)OC(=O)NCc1ccc(CNc2c([N+](=O)[O-])cnc3ccccc23)cc1`
## Output 22.2

## Input What value of growth has been reported for the following molecule? `CCCCCCN1CCN(Cc2ccc(N(CC)CC)cc2)C(=O)C1=O`
## Output 22.9

## Input What value of growth has been reported for the following molecule? `COc1cc2oc(-c3cccc(C(=O)Nc4ccc(Cl)cc4)c3)cc(=O)c2c(O)c1OC`
## Output 43.7

###

Give measured growth for each item. Keep answers brief.
Test system: MDA-MB-468 breast
assayName: NCI-60 one-dose screen, 48 h (100 = growth as untreated, 0 = no growth, -100 = all killed)
conditionNotes: 10 µM unless noted
The panel holds about 83,000 compounds, 20% with a hit somewhere; the sample as a whole holds those more often. Activity calls are given as the source filed them. Rule for the calls: active = growth percent below 10; inactive = the rest.

## Input What value of growth has been reported for the following compound? `C#CCOc1ccc2ncnc(N3CCC(NC(=O)CCl)CC3)c2c1`
## Output 15.4% [8.25 µM] (inactive)

## Input What value of growth has been reported for the following compound? `CCN(CC)CCNC(=O)n1cc(-c2ccncc2)c(-c2cc(Cl)cc(OC)c2)n1`
## Output 80.5% (inactive)

## Input What value of growth has been reported for the following compound? `NS(=O)(=O)c1ccc(N2N=C(c3ccccc3)CCC2=O)cc1`
## Output 96.3% (inactive)

## Input What value of growth has been reported for the following compound? `CC(=O)Nc1nc(C(=O)N2N=C(C)/C(=C/c3ccc(Cl)cc3)C2=O)cs1`
## Output 103% (inactive)

## Input What value of growth has been reported for the following compound? CN1C(=O)N(C)C2C1NN=c1s/c(=C\c3cccnc3)c(=O)n12 (stereo not given)
## Output 58.1% (inactive)

###

System: MDA-MB-468 breast
assayName: NCI-60 one-dose screen, 48 h (100 = growth as untreated, 0 = no growth, -100 = all killed)
conditionNotes: 10 µM unless noted
The panel holds about 83,000 compounds, 20% with a hit somewhere; the sample as a whole holds those more often.
Kindly note that classification relies on growth with these boundaries: lower = under 30%, middle = from 30% up to 80%, upper = 80% and over

## Input Class (by measured growth) for `Cc1ccc(=O)n(-c2ccc(Br)cc2F)c1`
## Output upper

## Input Class (by measured growth) for `CN1CCN(CCOc2ccc(-c3cnc4c(-c5ccc(C(F)(F)F)cc5)cnn4c3)cc2)CC1`
## Output middle

## Input Class (by measured growth) for `CSc1nc2ccccc2cc1/C=[N+](\[O-])c1ccccc1`
## Output upper

## Input Class (by measured growth) for `Cc1ccc(C)c2c1C(=O)OC2=O`
## Output upper

## Input Class (by measured growth) for `COc1ccc(/C=C/C(=O)c2ccc(Nc3ncnc4ccccc34)cc2)cc1OC`
## Output middle

## Input Class (by measured growth) for C=CC1=C(C(=O)O)N2C(=O)[C@@H](NC(=O)/C(=N\O)c3csc(N)n3)[C@H]2SC1 (stereo in doubt)
## Output upper

## Input Class (by measured growth) for COc1cccc(C2C(C#N)=C(N)Oc3cc(OCCCCCC[P+](c4ccccc4)(c4ccccc4)c4ccccc4)ccc32)c1 (stereo not given)
## Output lower

## Input Class (by measured growth) for `COc1ccc2c(c1)c(-c1nc(-c3c[nH]c4ncccc34)cs1)cn2CCN`
## Output lower

## Input Class (by measured growth) for `CCOC(=O)CSc1c([N+](=O)[O-])ncn1C`
## Output upper

## Input Class (by measured growth) for `CCOC(=O)c1c(C)nc2c(c1N)/C(=C/c1cc(OC)c(OC)c(OC)c1)C(=O)N2c1ccc(OC)cc1`
## Output middle

## Input Class (by measured growth) for `COc1ccc(Cl)cc1NC(=O)c1cc2c([nH]1)-c1nc(NC(=O)C(C)(C)C)sc1CC2`
## Output upper

## Input Class (by measured growth) for `COc1ccc(-c2[nH]nc(N)c2-c2cc(OC)c(OC)c(OC)c2)cc1`
## Output middle

## Input Class (by measured growth) for `O=C(/C=C(/C=C/c1coc2ccccc12)OB(F)F)/C=C/c1coc2ccccc12`
## Output upper

## Input Class (by measured growth) for `CC(C)Cc1nc(Nc2ccccc2)[nH]c(=O)c1C#N`
## Output lower

## Input Class (by measured growth) for `Nc1cccc(-c2nc3sccn3c2-c2ccnc(NCCCNS(=O)(=O)c3cccc4ccccc34)n2)c1`
## Output lower

## Input Class (by measured growth) for `Nc1c(C(=O)Nc2cccc(Cl)c2)sc2nc3c(cc12)CCCC3`
## Output middle

## Input Class (by measured growth) for COc1ccc(/C=N/NC(=O)c2cnn3c2NC(c2ccccc2)C3)cc1OC1CCCC1 (stereo not given)
## Output upper

## Input Class (by measured growth) for `COc1cc(/C=C/CO)cc(OC)c1O[C@@H]1O[C@H](CO)[C@@H](O)[C@H](O)[C@H]1O`
## Output upper

## Input Class (by measured growth) for `CN1CCN(c2ccc(OC(F)(F)F)c(Nc3ncc4c(n3)-c3c(c(C(N)=O)nn3CCO)CC4)c2)CC1`
## Output lower

## Input Class (by measured growth) for `COc1cccc(-c2nc3sccn3c2-c2ccnc(NCCCNS(=O)(=O)c3ccc(C(F)(F)F)cc3)c2)c1`
## Output middle

## Input Class (by measured growth) for `CCCCCCCCCCCCCCCCCC1=NC(C)(C)CN1C(C)(C)CO`
## Output lower

## Input Class (by measured growth) for `Cc1cc2c(cc1C)[n+](Cc1ccc3ccccc3c1)cn2Cc1ccc2ccccc2c1`
## Output lower

## Input Class (by measured growth) for `COc1ccc(C(=O)COc2ccc(NC(=O)Nc3ccc(Cl)c(C(F)(F)F)c3)cc2)cc1`
## Output lower

## Input Class (by measured growth) for `Cc1ccc2oc(=O)cc(-c3nc4ccc([N+](=O)[O-])cc4[nH]3)c2c1`
## Output lower

## Input Class (by measured growth) for `CCOC(=O)c1c(C)nc2ccccc2c1/C=C/c1ccccc1`
## Output lower

## Input Class (by measured growth) for `CN(C)CCOc1nc2c3cc([N+](=O)[O-])ccc3nn2c2ccccc12`
## Output middle

## Input Class (by measured growth) for `O=c1[nH]c2cc(Cl)c(Cl)cc2o1`
## Output upper

## Input Class (by measured growth) for `COc1ccc(-c2nc(N3CCN(C(=O)C4CCCCC4)CC3)c3c4c(sc3n2)CCCC4)cc1`
## Output lower

## Input Class (by measured growth) for `CN(C)c1ccc(N=Nc2ccccn2)c(O)c1`
## Output lower

## Input Class (by measured growth) for `NCCNc1nc2ccccc2c2c(=O)c3cccc(F)c3sc12`
## Output middle

## Input Class (by measured growth) for `C[C@]12CC[C@@H]3c4ccc(O)c([N+](=O)[O-])c4CC[C@H]3[C@@H]1CC[C@@H]2NS(=O)(=O)c1cccc(Br)c1`
## Output middle

## Input Class (by measured growth) for `C=C1C(=O)O[C@H]2[C@H]1CC/C(Cn1cc(-c3ccsc3)nn1)=C\CC[C@@]1(C)O[C@@H]21`
## Output lower

## Input Class (by measured growth) for `COc1cc(/C=C2\CCC/C(=C\c3cc(CN4CCCC4)c(O)c(OC)c3)C2=O)cc(CN2CCCC2)c1O`
## Output middle

## Input Class (by measured growth) for `Cc1c(Cl)cc(-n2c(=O)c3ccccc3c3ccccc3c2=O)cc1Cl`
## Output upper

## Input Class (by measured growth) for `NCCCNc1nc2ccccc2c2c(=O)c3cc(OC(F)(F)F)ccc3sc12`
## Output lower

## Input Class (by measured growth) for `CC(=O)c1nnn(-c2c(C(=O)n3nc(C)cc3C)sc(=S)n2-c2ccccc2)c1C`
## Output upper

## Input Class (by measured growth) for `O=C1N=c2ccccc2=C1c1sc(=Nc2ccccc2)n(Nc2ccccc2)c1O`
## Output upper

## Input Class (by measured growth) for COc1ccc(OCC(CO)N2CCN(c3ccccc3)CC2)cc1 (stereo not given)
## Output upper

## Input Class (by measured growth) for C=C1CC2(OC1=O)C(=O)N(CCCCCCCCCCCCN1C(=O)C3(CC(=C)C(=O)O3)c3ccccc31)c1ccccc12 (stereo not given)
## Output middle
